Test Summary: Solubility test
Assay type: physicochemical
Condition Parameters: pH 1.2, simulated gastric fluid, kinetic from dmso stock; JP-I medium, turbidity after 4 hours
Quick list: solubility at 4 h per entry.

Reference set (3 entries):
Cn1ccnc1COc1cnc(C(=O)Nc2ccc(F)c([C@]3(C)C=CSC(N)=N3)c2)cn1 [Compound 60]    > 40 µM
C[C@@]1(c2cc(NC(=O)c3ccc(OCCF)cn3)ccc2F)C=CSC(N)=N1 [Compound 32]    > 40 µM
NC1=NC(c2ccc(F)cc2)(c2cccc(NC(=O)c3ncc(Cl)cc3Cl)c2)CS1 (stereo not drawn) [Compound 9]    > 40 µM

Exercise: Endpoint output: solubility at 4 h of C[C@@]1(c2cc(NC(=O)c3cnc(-n4cncn4)cn3)ccc2F)C=CSC(N)=N1 [Compound 70] . Value?
Key: > 40 µM

Exercise: Again, but for CC1=CSC(N)=N[C@]1(C)c1cc(NC(=O)c2cnc(C)cn2)ccc1F [Compound 23]
Key: > 40 µM

Exercise: Again, but for COc1cnc(C(=O)Nc2cccc(C3(C4CCCCC4)CSC(N)=N3)c2)cn1 (stereo not drawn) [Compound 2]
Key: > 40 µM
